test: chemical genetic growth profiling, strain panel (AID 1159580);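 further: tested at 20 µM; growth read once vehicle control cultures reached saturation at 30 °C; 1 = growth at the plate median or of vehicle wells; lower values mean less growth of the strain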; details: S. cerevisiae deletion strains, growth OD, locus YDL192W, strain arf1
Hit rate of the full screen: of about 5,500 compounds, about 2,000 (36%) were called active. Inconclusive results (about 18%) are left out. No stated cut-off is given here; in the data, active means normalized growth mostly below about 0.91 (no sharp cut-off); inconclusive means no clear call, values can overlap the other calls; inactive means mostly above about 0.92. Some of the results follow.
Outcome (select one): 1 (yes) (active), 0 (no) (inactive)

Field: example entries. Status: answers known.
- COc1ccc2c(c1)OC/C(=C/c1ccc(OC)c(OC)c1)C2=O: 0 (no)
- C=C[C@@](C)(O)CCC1C(=C)CCC2[C@@](C)(CO)CCC[C@]12C (some centres not stated): 0 (no)
- Cc1[nH]c2ccccc2c1CN(C)C: 0 (no)
- C[C@@H]1CC(Cl)CC[C@H]1C(=O)OC(C)(C)C (some centres not stated): 0 (no)
- CCCCCCC(C)OC(=O)COc1cc(Cl)c(Cl)cc1Cl (configuration not stated): 0 (no)
- C=C1CCC2[C@](C)(CO)[C@H](O)CC[C@@]2(C)[C@@H]1C/C=C1/C(=O)OC[C@H]1O (some centres not stated): 0 (no)
- Nc1nc(=S)c2[nH]cnc2[nH]1: 0 (no)
- O=S(=O)(O)CCS: 0 (no)

Input: Called result for `O=C(O)/C=C/c1ccc(O)c(O)c1`
Output: 0 (no)

Input: Called result for C=C[C@@](C)(O)CCC1C(=C)C[C@H](O)C2C(C)(C)CCCC12C (some centres not stated)
Output: 0 (no)

Input: Called result for CNCCC(Oc1ccc(C(F)(F)F)cc1)c1ccccc1 (configuration not stated)
Output: 0 (no)

Input: Called result for `CCCCCCCCC(=O)NCc1ccc(O)c(OC)c1`
Output: 0 (no)

Input: Called result for `O=C(O)c1cc2cc(F)ccc2[nH]1`
Output: 0 (no)

Input: Called result for `COc1ccc(C(c2ccc(OC)cc2)C(Cl)(Cl)Cl)cc1`
Output: 0 (no)

Input: Called result for `COc1ccc2c(c1)OC/C(=C\c1ccc(OC)c(O)c1)C2=O`
Output: 1 (yes)

Input: Called result for `C[C@@H]1O[C@@H](O[C@H]2[C@H](Oc3cc(O)c4c(=O)cc(-c5ccc(O)cc5)oc4c3)O[C@H](CO)[C@@H](O)[C@@H]2O)[C@H](O)[C@H](O)[C@H]1O`
Output: 0 (no)

Input: Called result for `COc1ccc(CN(CCN(C)C)c2ccccn2)cc1`
Output: 0 (no)

====

assay: chemical genetic growth profiling, strain panel (AID 1159580); details: S. cerevisiae deletion strains, growth OD, locus YHR129C, strain ARP1, active compounds read low
Among all 5,500 compounds or so, about 2,000 (36%) were called active. About 18% were inconclusive and are not listed. Some of the results follow.
Measured quantity: normalized growth
Output: the number by itself.

Solved cases (3 shown):
- COc1ccc(-c2coc3cc(O)ccc3c2=O)c(OC)c1: 1.02
- COc1ccc(C(=O)O)cc1OC: 1.03
- COc1ccc(-c2coc3cc(O)ccc3c2=O)c(OC)c1O: 0.993

Input: Field request: normalized growth | item: `C=CCc1ccc(OC(=O)c2ccccc2)c(OC)c1`
Output: 0.985

Input: Field request: normalized growth | item: `O=S(=O)(O)CCS`
Output: 1.01

Input: Field request: normalized growth | item: c1ccc2c(c1)CCCC2C1=NCCN1 (stereo not drawn)
Output: 1.01

Input: Field request: normalized growth | item: `CCCCCCCCC(=O)NCc1ccc(O)c(OC)c1`
Output: 0.988

Input: Field request: normalized growth | item: `C=CCc1ccc(O)c(OC)c1`
Output: 0.931

Input: Field request: normalized growth | item: `COc1ccccc1-c1coc2cc(O)ccc2c1=O`
Output: 1.03

Input: Field request: normalized growth | item: `O=c1cccc2ccc(O)c(O)c2c1O`
Output: 0.294

Input: Field request: normalized growth | item: NCCC(O)C(=O)NC1CC(N)C(OC2OC(CN)C(O)C(O)C2N)C(OC2OC(CO)C(O)C2O)C1O (stereo not drawn)
Output: 0.992

Input: Field request: normalized growth | item: `O=c1c(-c2ccc(O)cc2)coc2cc(O)ccc12`
Output: 1.01

Input: Field request: normalized growth | item: `COc1ccc(-c2coc3cc(O)ccc3c2=O)cc1`
Output: 0.929

====

test: chemical genetic growth profiling, strain panel (AID 1159580); settings: S. cerevisiae deletion strains, growth OD, locus YLR342W, strain FKS1, active compounds read low
In all, about 5,500 compounds went through this assay and about 2,000 (36%) were called active. Roughly 18% stayed inconclusive and do not appear here. The list shows a part of the results.
Entries annotated with measured normalized growth
Output: the number by itself.

Solved cases (6 shown):
- O=C1CCC(N2C(=O)c3ccccc3C2=O)C(=O)N1 (configuration not stated): 1.01
- NCCCS(=O)(=O)O: 1.02
- CN1C2CCC1CC(OC(c1ccccc1)c1ccccc1N)C2 (configuration not stated): 0.994
- CCOC(=O)n1ccn(C)c1=S: 1.01
- CCCCCCCCC(=O)NCc1ccc(O)c(OC)c1: 1.03
- COc1cc(CNC(=O)CCCC/C=C/C(C)C)ccc1O: 0.978

With those in mind, consider the next molecule.
Input: Field request: normalized growth | item: CN1C2CCC1CC(OC(c1ccccc1)c1ccccc1)C2 (configuration not stated)
Output: 0.997

====

assay: chemical genetic growth profiling, strain panel (AID 1159580);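 further: tested at 20 µM; growth read once vehicle control cultures reached saturation at 30 °C; 1 = growth at the plate median or of vehicle wells; lower values mean less growth of the strain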; conditions: S. cerevisiae deletion strains, growth OD, locus YBR023C, strain chs3, active compounds read low
About 2,000 (36%) of roughly 5,500 compounds were called active. Not shown: some 18% with an inconclusive outcome. The list shows a part of the results.
Measured quantity: normalized growth
Output: the number by itself.

Solved cases (3 shown):
* C[C@]12CCC(=O)C=C1C=CC1C2CC[C@@]2(C)C1CC[C@@]21CCC(=O)O1 (stereo not given in full) | 0.979
* COC(=O)C[C@H]1C2(C)CC34OC5(C)O[C@@]6([C@H](OC(C)=O)C(OC(C)=O)[C@]7(C)C(/C(=C(/O)C(C)C)C(=O)O[C@H]7c7ccoc7)[C@@]6(O5)[C@H](OC(C)=O)[C@@]3(O)C2OC(=O)C(C)C)[C@]14C (stereo not given in full) | 1
* C[C@]12CCC(=O)C=C1C=CC1C2CC[C@@]2(C)C1CC[C@@]2(O)CCC(=O)O (stereo not given in full) | 1.02

Input: Field request: normalized growth | item: CC(=O)S[C@@H]1CC2=CC(=O)CC[C@]2(C)[C@H]2CC[C@@]3(C)[C@@H](CC[C@@]34CCC(=O)O4)C12 (stereo not given in full)
Output: 1.01

Input: Field request: normalized growth | item: `NCCc1cnc[nH]1`
Output: 1.02

====

test: chemical genetic growth profiling, strain panel (AID 1159580);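 further: tested at 20 µM; growth read once vehicle control cultures reached saturation at 30 °C; 1 = growth at the plate median or of vehicle wells; lower values mean less growth of the strain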; conditions: S. cerevisiae deletion strains, growth OD, locus YJL154C, strain vps35, active compounds read low
Hit rate of the full screen: of about 5,500 compounds, about 2,000 (36%) were called active. Another 18% or so got no clear call; they are omitted. This is one part of the list.
Measured quantity: normalized growth
Output: the number by itself.

Input: Field request: normalized growth | item: CCn1cc(C(=O)O)c(=O)c2cc(F)c(N3CCNC(C)C3)c(F)c21 (stereo not given)
Output: 0.967

Input: Field request: normalized growth | item: COc1c(N2CCNC(C)C2)c(F)cc2c(=O)c(C(=O)O)cn(C3CC3)c12 (stereo not given)
Output: 0.993

Input: Field request: normalized growth | item: CC1COc2c(N3CCN(C)CC3)c(F)cc3c(=O)c(C(=O)O)cn1c23 (stereo not given)
Output: 0.982

Input: Field request: normalized growth | item: `CCn1cc(C(=O)O)c(=O)c2cc(F)c(N3CCNCC3)nc21`
Output: 0.961

Input: Field request: normalized growth | item: CO/N=C1/CN(c2nc3c(cc2F)c(=O)c(C(=O)O)cn3C2CC2)CC1CN (stereo not given)
Output: 1.02

====

experiment: chemical genetic growth profiling, strain panel (AID 1159580);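 further: tested at 20 µM; growth read once vehicle control cultures reached saturation at 30 °C; 1 = growth at the plate median or of vehicle wells; lower values mean less growth of the strain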; conditions: S. cerevisiae deletion strains, growth OD, locus YOR080W, strain dia2
The whole screen tested about 5,500 compounds, of which about 2,000 (36%) were called active. Inconclusive results (about 18%) are left out. Cut-off read from the data, not from the text of the source: active = normalized growth mostly below about 0.91 (no sharp cut-off); inconclusive = no clear call, values can overlap the other calls; inactive = mostly above about 0.92. This is one part of the list.
Outcome (select one): class 1 (active), class 0 (inactive)

Field: example entries. Status: answers known.
• CCCCCCCCCCCCCc1ccco1 = class 0
• CCN(CC)C(=O)N1CCN(C)CC1 = class 0
• Nc1nc(=S)c2[nH]cnc2[nH]1 = class 0
• CCN(CC)Cc1ccc(Nc2ccnc3cc(Cl)ccc23)cc1O = class 0
• O=C(O)c1cc2cc(F)ccc2[nH]1 = class 0
• C#CCCCCCCCCCCCc1ccco1 = class 0
• Cn1c(=O)c2c(ncn2CC(O)CO)n(C)c1=O (stereo not drawn) = class 0
• O=C(Oc1cc(O)cc2c1C[C@@H](OC(=O)c1cc(O)c(O)c(O)c1)[C@@H](c1cc(O)c(O)c(O)c1)O2)c1cc(O)c(O)c(O)c1 = class 0

Input: Called result for C[C@]12CCC(=O)C=C1C=CC1C2CC[C@@]2(C)C1CC[C@@]2(O)CCC(=O)O (stereo partly drawn)
Output: class 0

Input: Called result for `CCCc1cc(C(N)=S)ccn1`
Output: class 0
